Data provenance: patent US20200216416A1

molecular target: human MET kinase del Ex14 (Homo sapiens, UniProt P08581, DEL963-1009); construct: GST-tagged recombinant human MET kinase domain; experiment: c-Met Enzyme Assay, del Ex14 mutant; conditions: averaged IC50; del Ex14 5 nM; 60-minute incubation at 22° C.; read-out: Del14 IC50
Sequence (P08581 with tags, fused parts or gaps DEL963-1009 limits assumed): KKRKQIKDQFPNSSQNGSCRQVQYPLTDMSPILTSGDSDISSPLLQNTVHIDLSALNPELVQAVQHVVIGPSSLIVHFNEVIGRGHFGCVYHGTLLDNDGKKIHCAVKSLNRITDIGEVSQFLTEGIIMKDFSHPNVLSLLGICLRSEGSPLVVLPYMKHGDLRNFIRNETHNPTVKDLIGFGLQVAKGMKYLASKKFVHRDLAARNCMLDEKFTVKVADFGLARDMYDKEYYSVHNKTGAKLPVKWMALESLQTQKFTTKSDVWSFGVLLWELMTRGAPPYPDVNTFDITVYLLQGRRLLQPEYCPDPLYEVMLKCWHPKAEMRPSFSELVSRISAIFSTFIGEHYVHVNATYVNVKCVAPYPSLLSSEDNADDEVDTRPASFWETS
Classification by IC50 | ranges: low = under 3 nM, mid = from 3 nM up to 10 nM, high = 10 nM and over

                                    molecule  label_value
 0  COc1cc2nccc(Oc3ccc(NC(=O)c4cn(C(C)C)cc(-c5ccc(F)cc5)c4=O)cn3)c2cc1OC [Example 58]          mid
 1  CC(C)n1cc(C(=O)Nc2ccc(Oc3ccnc4cc(OC(F)(F)F)ccc34)cn2)c(=O)c(-c2ccc(F)cc2)c1 [Example 50]         high
 2  COc1cc2nccc(Oc3ccc(NC(=O)c4cn(CC(C)(C)O)cc(-c5ccc(F)cc5)c4=O)nc3)c2cc1OC [Example 9]          mid
 3  COc1cc2nccc(Oc3ccc(NC(=O)c4cn(CCN(C)C)cc(-c5ccc(F)c(F)c5)c4=O)nc3)c2cc1OC [Example 43]          low
 4  COc1ccc2nccc(Oc3ccc(NC(=O)c4cn(C)cc(-c5ccc(F)cc5)c4=O)nc3)c2c1 [Example 41]         high
 5  COc1cc2nccc(Oc3ccc(NC(=O)c4cn(CCC(C)C)cc(-c5ccc(F)c(F)c5)c4=O)nc3)c2cc1OC [Example 35]         high
 6  COc1cc2nccc(Oc3ccc(NC(=O)c4cn(CC(=O)N(C)C)cc(-c5ccc(F)c(F)c5)c4=O)nc3)c2cc1OC [Example 24]         high
 7  COc1cc2ncc(C#N)c(Oc3ccc(NC(=O)c4cn(C(C)C)cc(-c5ccc(F)cc5)c4=O)nc3)c2cc1OC [Example 57]         high
 8  COc1cc2nccc(Oc3ccc(NC(=O)c4cn(C(C)C)cc(-c5ccc(F)cc5)c4=O)nc3)c2cc1OC [Example 1]          low
 9  COc1cc2nccc(Oc3cnc(NC(=O)c4cn(C(C)C)cc(-c5ccc(F)cc5)c4=O)nc3)c2cc1OC [Example 54]          mid
10  COc1cc2nccc(Oc3cnc(NC(=O)c4cn(C(C)C)c(C)c(-c5ccc(F)cc5)c4=O)nc3)c2cc1OC [Example 55]          mid
11  COc1cc2nccc(Oc3ccc(NC(=O)c4cn(C(C)C)cc(-c5ccc(F)cc5F)c4=O)nc3)c2cc1OC [Example 4]          low
12  COc1cc2c(Oc3ccc(NC(=O)c4cn(C(C)C)cc(-c5ccc(F)cc5)c4=O)nc3)ccnc2cc1F [Example 49]         high
13  COc1ccc2nccc(Oc3ccc(NC(=O)c4cn(CCN(C)C)cc(-c5ccc(F)cc5)c4=O)nc3)c2c1 [Example 47]         high
14  COc1cc2nccc(Oc3ccc(NC(=O)c4cn(C(C)C)cc(-c5ccc(Cl)cc5)c4=O)nc3)c2cc1OC [Example 5]          mid
15  COc1cc2nccc(Oc3ccc(NC(=O)c4cn(C5CCOCC5)cc(-c5ccc(F)cc5)c4=O)nc3)c2cc1OC [Example 12]          mid
16  CCCC(CCC)n1cc(C(=O)Nc2ccc(Oc3ccnc4cc(OC)c(OC)cc34)cn2)c(=O)c(-c2ccc(F)cc2F)c1 [Example 17]         high
17  COc1cc2nccc(Oc3ccc(NC(=O)c4cn(C(C)C)c(C)c(-c5ccc(F)c(F)c5)c4=O)nc3)c2cc1OC [Example 28]          low
18  COc1cc2nccc(Oc3ccc(NC(=O)c4cn(CCN(C)C)cc(-c5ccc(F)cc5F)c4=O)nc3)c2cc1OC [Example 44]          low
19  CCC(CC)n1cc(C(=O)Nc2ccc(Oc3ccnc4cc(OC)c(OC)cc34)cn2)c(=O)c(-c2ccc(F)cc2F)c1 [Example 16]          mid
20  COc1cc2c(Oc3ccc(NC(=O)c4cn(C(C)C)c(C)c(-c5ccc(F)cc5)c4=O)nc3)ccnc2cc1F [Example 48]          mid
21  CCc1c(-c2ccc(F)cc2)c(=O)c(C(=O)Nc2ccc(Oc3ccnc4cc(OC)c(OC)cc34)cn2)cn1C(C)C [Example 29]          low
22  COc1cc2nccc(Oc3ccc(NC(=O)c4cn(CC(=O)N(C)C)cc(-c5ccc(Cl)cc5)c4=O)nc3)c2cc1OC [Example 25]          mid
23  COc1cc2nccc(Oc3ccc(NC(=O)c4cn(CC(=O)N(C)C)cc(-c5ccc(F)cc5)c4=O)nc3)c2cc1OC [Example 23]          low
24  COc1cc2nccc(Oc3ccc(NC(=O)c4cn(C(C)C)cc(-c5ccc(F)c(Cl)c5)c4=O)nc3)c2cc1OC [Example 21]         high
25  COc1ccc2nccc(Oc3ccc(NC(=O)c4cn(C(C)C)c(C)c(-c5ccc(F)cc5)c4=O)nc3)c2c1 [Example 33]          mid
26  COc1cc2nccc(Oc3ccc(NC(=O)c4cn(CC(=O)N5CCOCC5)cc(-c5ccc(F)cc5F)c4=O)nc3)c2cc1OC [Example 15]         high
